target entity: various mutants of kinase EGFR (BaF3 cell lines stably transfected with kinase) (Homo sapiens, UniProt P00533, C797S/L858R/T790M)
Construct: expressed in transfected cells; host or cells: BaF3
Sequence (P00533 25-1210 T790M/C797S/L858R): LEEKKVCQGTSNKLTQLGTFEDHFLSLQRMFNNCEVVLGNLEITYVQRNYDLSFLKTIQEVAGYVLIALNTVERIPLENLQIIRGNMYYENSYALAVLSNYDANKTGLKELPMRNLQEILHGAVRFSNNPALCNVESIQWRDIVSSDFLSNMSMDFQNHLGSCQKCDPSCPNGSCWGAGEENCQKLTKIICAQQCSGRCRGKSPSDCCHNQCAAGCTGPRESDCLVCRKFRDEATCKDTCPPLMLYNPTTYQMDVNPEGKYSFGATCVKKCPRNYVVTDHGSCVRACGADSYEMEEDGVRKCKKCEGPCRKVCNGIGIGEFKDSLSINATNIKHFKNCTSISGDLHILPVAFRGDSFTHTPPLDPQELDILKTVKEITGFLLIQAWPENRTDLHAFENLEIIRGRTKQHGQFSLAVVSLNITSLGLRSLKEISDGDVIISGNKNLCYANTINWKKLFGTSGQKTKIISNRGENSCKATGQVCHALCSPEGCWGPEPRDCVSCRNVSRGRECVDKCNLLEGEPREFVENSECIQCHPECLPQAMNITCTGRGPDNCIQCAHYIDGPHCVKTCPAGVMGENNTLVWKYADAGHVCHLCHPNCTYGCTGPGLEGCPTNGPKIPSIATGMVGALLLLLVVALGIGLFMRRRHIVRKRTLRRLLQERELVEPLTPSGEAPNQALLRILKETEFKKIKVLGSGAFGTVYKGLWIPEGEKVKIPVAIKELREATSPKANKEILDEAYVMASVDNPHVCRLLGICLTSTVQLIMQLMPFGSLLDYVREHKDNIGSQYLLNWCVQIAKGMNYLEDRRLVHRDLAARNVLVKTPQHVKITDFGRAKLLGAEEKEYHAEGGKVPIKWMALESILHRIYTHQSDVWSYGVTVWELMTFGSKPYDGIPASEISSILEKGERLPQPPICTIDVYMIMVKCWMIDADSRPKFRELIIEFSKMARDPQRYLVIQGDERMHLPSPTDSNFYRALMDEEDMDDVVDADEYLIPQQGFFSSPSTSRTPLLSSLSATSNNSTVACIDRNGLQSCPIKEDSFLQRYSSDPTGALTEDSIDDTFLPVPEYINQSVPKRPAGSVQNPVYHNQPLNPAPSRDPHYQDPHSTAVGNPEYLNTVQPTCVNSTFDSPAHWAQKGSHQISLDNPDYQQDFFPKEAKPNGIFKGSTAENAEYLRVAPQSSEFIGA
assay method text: Growth inhibitory activity of compounds on BaF3 cell lines stably transfected with kinase (MTS, 48 h)
Type: cell-based
protocol conditions: BaF3 cells stably transfected with EGFR L858R/T790M/C797S, read-out: IC50, growth inhibition, L858R/T790M/C797S
pIC50: −log10 of the molar value.
measure name: pIC50

*Q* Which pIC50 value is on record for COc1cc(N2CCC(N3CCN(C)CC3)CC2)c(Cc2ccccc2)cc1Nc1ncc(C(F)(F)F)c(Nc2ccc3nccnc3c2N(C)S(C)(=O)=O)n1 ?
*A* 5.60 to 6.30

*Q* Requested field: pIC50. Item: COc1nc(N2CCC(N3CCN(C)CC3)CC2)ccc1Nc1ncc(Cl)c(Nc2ccc3nccnc3c2N(C)S(C)(=O)=O)n1
*A* 6.30 to 7.30

*Q* Given the compound CCc1cc(Nc2ncc(Br)c(Nc3ccc4nccnc4c3N(C)S(=O)(=O)C(F)(F)F)n2)c(OC(F)(F)F)cc1N1CCC(N2CCN(C)CC2)CC1 , what is its reported pIC50?
*A* 6.30 to 7.30

*Q* Need pIC50, item CN1CCN(S(=O)(=O)c2ccc(Nc3ncc(Br)c(Nc4ccc5nccnc5c4N(C)S(C)(=O)=O)n3)cc2)CC1
*A* 6.30 to 7.30

*Q* pIC50 for COc1cc(N2CCC(N3CCN(C)CC3)CC2)c(C(C)C)cc1Nc1ncc(Cl)c(Nc2ccc3nccnc3c2N(C)S(C)(=O)=O)n1 ?
*A* 6.30 to 7.30

*Q* Param item = CN(c1c(Nc2nc(NC3CC3)ncc2Br)ccc2nccnc12)S(C)(=O)=O ; retrieve measured pIC50.
*A* 5.60 to 6.30
